B1: F1*; the commonest letter at each place (parent)
chain: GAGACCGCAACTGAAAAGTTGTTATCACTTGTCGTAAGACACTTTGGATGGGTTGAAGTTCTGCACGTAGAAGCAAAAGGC

- Variants of: B1
- assay info: fraction ligated after 30 min (ligated reads / total reads); higher = more ligase activity
- condition summary: with F1*sub RNA substrate (template-directed ligation), 42 °C
experimental readout: fraction ligated
Answer as a number with no unit attached.

Problem: # get_value(readout='fraction ligated', item= T32C T43C )
Result: 0.782

Problem: Given the entry T32A T45G , report its measured fraction ligated.
Result: 0.0954

Problem: Would you mind telling me what fraction ligated value was observed for C33T G55C ?
Result: 0.82

Problem: Quick one: fraction ligated for T30C C42A ?
Result: 0.817

Problem: # lookup: fraction ligated of G34A A37G
Result: 0.859

Problem: I have this variant here, A39C C40T , and I need its recorded fraction ligated.
Result: 0.784

Problem: Quick one: fraction ligated of C40A T45G ?
Result: 0.0271

Problem: Quick one: fraction ligated of A39T A56G ?
Result: 0.78

Problem: # lookup: fraction ligated of A37C G47T
Result: 0.406

Problem: Please report the recorded fraction ligated for G31T G38C .
Result: 0.78

Problem: For the variant T29A T30G , what fraction ligated is on record?
Result: 0.828
